- MOLECULE: "CN(OCc1ccccc1)S(=O)(=O)c1ccccc1S(N)(=O)=O"
  melting point: "122 to 128 °C"
- MOLECULE: "O=C(COC(=O)Cc1ccccc1Nc1c(Cl)cccc1Cl)NCCO[N+](=O)[O-]"
  melting point: "81 to 83 °C"
- MOLECULE: "COc1ccc(-c2ncnnc2-c2ccc(OC)cc2)cc1"
  melting point: "118 to 120 °C"
- MOLECULE: "CCc1ccc(NC(=O)Nc2ccc(Oc3ccnc(OC)c3)cc2)cc1"
  melting point: "196 °C"
- MOLECULE: "CSc1ccc2nc[nH]c(=O)c2c1"
  melting point: "203 to 204 °C"
- MOLECULE: "COc1ccc2c3c(oc2c1)CC(CC1CCN(Cc2ccccc2)CC1)C3=O (centres undefined)"
  melting point: "137 to 138 °C"
- MOLECULE: "COc1cc(OCc2ccccc2)ccc1C(=O)c1cc(Cl)ccc1N"
  melting point: "97 to 98 °C"
- MOLECULE: "COc1ccc(C2(C)C(=O)Nc3cc(Cl)cc(Cl)c3C2=O)cc1 (centres undefined)"
  melting point: "210 to 212 °C"
- MOLECULE: "CCOC(=O)C1=C(C)N=C(SCc2ccc(OC)cc2)N(S(=O)(=O)c2ccccc2)C1c1cccc([N+](=O)[O-])c1 (centres undefined)"
  melting point: "86 to 88 °C"
